Source listed as paper PMC4535766.

Tested on: T. cruzi, strain Tulahuen C4, intracellular amastigotes
Assay: microbe, parasite or virus in culture
Settings: Trypanosoma cruzi, TULAHUEN, read-out: IC50 T. cruzi
pIC50: −log10 of the molar value.
Classes based on pIC50: bucket A = under 4, bucket B = from 4 up to 5, bucket C = 5 and over

Problem: Which bin should I file Nc1nc2c(ncn2CCC(CO)CO)c(=O)[nH]1 under?
Result: bucket A

Problem: Which bin should I file O=C1CN(/N=C/c2ccc([N+](=O)[O-])o2)C(=O)N1 under?
Result: bucket C

Problem: Which bin should I file CC(=O)N1CCN(c2ccc(OCC3COC(Cn4ccnc4)(c4ccc(Cl)cc4Cl)O3)cc2)CC1 (stereo not shown) under?
Result: bucket C

Problem: Which bin should I file CN1CCC(=C2c3ccccc3CC(=O)c3sccc32)CC1 under?
Result: bucket A

Problem: Which bin should I file Cc1cn([C@H]2C[C@H](N=[N+]=[N-])[C@@H](CO)O2)c(=O)[nH]c1=O under?
Result: bucket A

Problem: Which bin should I file c1ccc(-c2ccc(C(c3ccccc3)n3ccnc3)cc2)cc1 (stereo not shown) under?
Result: bucket C

Problem: Which bin should I file COC(=O)N[C@H](C(=O)N[C@@H](Cc1ccccc1)[C@@H](O)CN(Cc1ccc(-c2ccccn2)cc1)NC(=O)[C@@H](NC(=O)OC)C(C)(C)C)C(C)(C)C [Atazanavir (Sulfate), Atazanavir] under?
Result: bucket B

Problem: Which bin should I file O=C(O)c1nn(Cc2ccc(Cl)cc2Cl)c2ccccc12 under?
Result: bucket A

Problem: Which bin should I file CC(C)(C)NC(=O)[C@@H]1C[C@@H]2CCCC[C@@H]2CN1C[C@@H](O)[C@H](Cc1ccccc1)NC(=O)[C@H](CC(N)=O)NC(=O)c1ccc2ccccc2n1 under?
Result: bucket B

Problem: Which bin should I file CCC[C@@]1(CCc2ccccc2)CC(O)=C([C@H](CC)c2cccc(NS(=O)(=O)c3ccc(C(F)(F)F)cn3)c2)C(=O)O1 under?
Result: bucket B

Problem: Which bin should I file Nc1ccc(S(=O)(=O)c2ccc(N)cc2)cc1 under?
Result: bucket A

Problem: Which bin should I file Nc1nc(N)c2nc(-c3ccccc3)c(N)nc2n1 under?
Result: bucket B

====

System: T. b. rhodesiense strain STIB 900, trypomastigotes
Assay: In vitro activity against T. b. rhodesiense, serial drug dilution assay
Settings: Trypanosoma brucei, read-out: IC50 T. b. rhod.
Experimental: Drug stock solutions (10mg/ml) were in DMSO (100%). […] Selectivity index (SI) was calculated as IC50 L6 cells/IC50 parasite.
pIC50: −log10 of the molar value. Counter-ions that a name gives are not always drawn.
Cut-off 5 on pIC50, inclusive. At or above means 1; below means -1.

// known answers, use as guide
COMPOUND	LABEL_VALUE
NNC(=O)c1ccncc1 [Isoniazide]	-1
CNCCC=C1c2ccccc2CCc2ccccc21 [Nortryptyline]	1
Cc1ncc([N+](=O)[O-])n1CCO [Metronidazole]	-1
CCC[C@@]1(CCc2ccccc2)CC(O)=C([C@H](CC)c2cccc(NS(=O)(=O)c3ccc(C(F)(F)F)cn3)c2)C(=O)O1 [Tipranavir]	-1
O=C(O)COCCN1CCN(C(c2ccccc2)c2ccc(Cl)cc2)CC1 (centres unmarked) [Cetirizine (Hydrochloride), Cetirizine]	-1
CN(C)CCC=C1c2ccccc2CCc2ccccc21 [Amitriptyline]	1

Problem: State whether the measured pIC50 reaches 5, counting equality as reaching it, for O=C(N/N=C/c1ccc([N+](=O)[O-])o1)c1ccc(O)cc1 [Nifuroxazide]
Result: 1

Problem: State whether the measured pIC50 reaches 5, counting equality as reaching it, for O=C(Nc1ccc([N+](=O)[O-])cc1Cl)c1cc(Cl)ccc1O [Niclosamide]
Result: 1

Problem: State whether the measured pIC50 reaches 5, counting equality as reaching it, for N=C(N)c1ccc(OCCCCCOc2ccc(C(=N)N)cc2)cc1 [Pentamidine]
Result: 1

Problem: State whether the measured pIC50 reaches 5, counting equality as reaching it, for Fc1ccc([C@@H]2CCNC[C@H]2COc2ccc3c(c2)OCO3)cc1 [Paroxetine]
Result: 1

Problem: State whether the measured pIC50 reaches 5, counting equality as reaching it, for CC1CS(=O)(=O)CCN1/N=C/c1ccc([N+](=O)[O-])o1 (centres unmarked) [Nifurtimox]
Result: 1

Problem: State whether the measured pIC50 reaches 5, counting equality as reaching it, for C[C@@H]1[C@H](O)[C@@H](C)/C=C/C=C/C=C/C=C/C=C/C=C/C=C/[C@H](O[C@@H]2O[C@H](C)[C@@H](O)[C@H](N)[C@@H]2O)C[C@@H]2O[C@](O)(C[C@@H](O)C[C@@H](O)[C@H](O)CC[C@@H](O)C[C@@H](O)CC(=O)O[C@H]1C)C[C@H](O)[C@H]2C(=O)O [Amphotericin B]
Result: 1

Problem: State whether the measured pIC50 reaches 5, counting equality as reaching it, for NC12CC3CC(CC(C3)C1)C2 [Amantadine]
Result: -1

Problem: State whether the measured pIC50 reaches 5, counting equality as reaching it, for CC(C)CN(C[C@@H](O)[C@H](Cc1ccccc1)NC(=O)O[C@H]1CCOC1)S(=O)(=O)c1ccc(N)cc1 [Amprenavir]
Result: -1

====

Tested on: T. cruzi, strain Tulahuen C4, intracellular amastigotes
Test: microbe, parasite or virus in culture
Conditions: Trypanosoma cruzi, TULAHUEN, read-out: IC50 T. cruzi
Protocol: Drug stock solutions (10mg/ml) were in DMSO (100%). […] Selectivity index (SI) was calculated as IC50 L6 cells/IC50 parasite.
QUANTITY_KIND: pIC50
For clarity, pIC50 is expressed as the negative log10 of concentration in mol/L.

> print(dat)
                                   compound  quantity.kind  measurement
1               CNCCC=C1c2ccccc2CCc2ccccc21          pIC50         4.64
2  Cc1cccc(C)c1OCC(=O)N[C@@H](Cc1ccccc1)[C@@H](O)C[C@H](Cc1ccccc1)NC(=O)[C@H](C(C)C)N1CCCNC1=O          pIC50         4.81
3             NC(=O)c1cnccn1 [Pyrazinamide]          pIC50         3.25
4                     NC12CC3CC(CC(C3)C1)C2          pIC50         3.43

Lab note: next compound to report on.
Problem: # query: pIC50 of entry Cc1ncc([N+](=O)[O-])n1CC(O)CCl (centres unmarked)
Result: 3.89

====

Tested on: axenic amastigotes of L. donovani, strain MHOM-ET-67/L82
Assay: In vitro activity against L. donovani axenic amastigotes, serial drug dilution assay
Assay type: cell-based, Leishmania donovani
Conditions: Leishmania donovani, L. donovani axenic amastigotes; read-out: L. don. axen. IC50
Where a name gives a salt, the structure may show the parent alone.
Each entry below carries its reported pIC50.
For clarity, pIC50 is expressed as the negative log10 of concentration in mol/L.

// worked examples, pIC50 included
> print(dat)
                                   molecule                            assayed.target  quantity.kind  measurement
1  COC1=CC(=O)C[C@@H](C)[C@]12Oc1c(Cl)c(OC)cc(OC)c1C2=O  axenic amastigotes of L. donovani, strain MHOM-ET-67/L82          pIC50         4.06
2  OC(c1cc(C(F)(F)F)nc2c(C(F)(F)F)cccc12)C1CCCCN1 (stereo not shown) [Mefloquine (Hydrochloride), Mefloquine]  axenic amastigotes of L. donovani, strain MHOM-ET-67/L82          pIC50         4.41
3  COc1ccc(Cl)cc1C(=O)NCCc1ccc(S(=O)(=O)NC(=O)NC2CCCCC2)cc1 [Glybenclamide]  axenic amastigotes of L. donovani, strain MHOM-ET-67/L82          pIC50         5.01
4  C#C[C@]1(O)CC[C@H]2[C@@H]3CCC4=Cc5oncc5C[C@]4(C)[C@H]3CC[C@@]21C  axenic amastigotes of L. donovani, strain MHOM-ET-67/L82          pIC50         4.99

Problem: # query: pIC50 of entry CN(C)CCCN1c2ccccc2Sc2ccc(C(F)(F)F)cc21
Result: 4.10

Problem: # query: pIC50 of entry CN(C)c1ccc(O)c2c1C[C@H]1C[C@H]3[C@H](N(C)C)C(O)=C(C(N)=O)C(=O)[C@@]3(O)C(O)=C1C2=O
Result: 4.34

====

Each entry below carries its reported IC50.
Test system: intracellular amastigotes of L. donovani strain MHOM-ET-67/L82
Experiment: Activity against Leishmania donovani intracellular amastigotes in mouse peritoneal macrophages
Details: Leishmania donovani, Peritoneal macrophage, in Mus musculus, 96 h, read-out: IC50 L. don. intracell
Counter-ions that a name gives are not always drawn.
Record the value in µM, omitting the unit from your answer.

Problem: # query: IC50 of entry CN(C/C=C/C#CC(C)(C)C)Cc1cccc2ccccc12 [Terbinafine (Hydrochloride), Terbinafine]
Result: 69.5

Problem: # query: IC50 of entry CCN(CCCCOC(=O)c1ccc(OC)c(OC)c1)C(C)Cc1ccc(OC)cc1 (stereo not shown)
Result: 54.9

Problem: # query: IC50 of entry CCCCCCCCCCCCCCCCOP(=O)([O-])OCC[N+](C)(C)C
Result: 1.21
